Each recorded value in this set is attributed to paper PMC3119659.

Study system: ELIC V40A (Dickeya chrysanthemi, UniProt P0C7B7, V40A)
Protocol notes: Two-electrode voltage clamp of ELIC point mutant V40A in oocytes
Condition: read-out: EC50 of activation
Text: To investigate the role of residues surrounding the bound ligand for channel activation, we have mutated single residues to alanine and we have measured activation with the two-electrode voltage-clamp technique (Table 2). For many mutants there was no response to the addition of cysteamine. […]
Measurement label: pEC50
Lab note: report pEC50 as minus log10 of the concentration in molar units, number only.

Value (pEC50, ELIC V40A (Dickeya chrysanthemi, UniProt P0C7B7, V40A)) for record NCCS = 2.72

---

Study system: ELIC (Dickeya chrysanthemi)
Construct: expressed in transfected cells; host or cells: Xenopus laevis oocytes (cRNA injection, pTLN vector)
Protocol notes: cell-based
Format: cell-based, Erwinia chrysanthemi
Condition: WT, pH 8.0, two-electrode voltage clamp, -60 mV; read-out: EC50 of activation of ELIC
Measurement label: EC50 (µM)
Field format: number, assumed µM, no unit text.

Per the record, NCCN has EC50 of 2000

---

Study system: ELIC (Dickeya chrysanthemi, UniProt P0C7B7)
Construct: expressed in transfected cells; host or cells: Xenopus laevis oocytes (cRNA injection, pTLN vector)
Sequence (P0C7B7 whole entry): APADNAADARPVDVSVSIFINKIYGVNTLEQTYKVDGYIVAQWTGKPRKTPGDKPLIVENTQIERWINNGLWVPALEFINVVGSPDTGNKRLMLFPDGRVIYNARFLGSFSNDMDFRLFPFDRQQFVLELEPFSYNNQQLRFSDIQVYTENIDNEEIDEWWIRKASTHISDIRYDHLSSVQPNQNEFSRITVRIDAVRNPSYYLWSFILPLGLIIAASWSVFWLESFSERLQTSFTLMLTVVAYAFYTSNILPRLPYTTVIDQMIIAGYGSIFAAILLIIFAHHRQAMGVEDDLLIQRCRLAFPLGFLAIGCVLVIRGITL
Protocol notes: cell-based
Format: cell-based, Erwinia chrysanthemi
Condition: pH 7.0, averages and s.d. of six measurements
Listed compounds paired with reported Imax/Imax cysteamine
Reply with just the number.

Here's what some known entries look like.
Compound	Imax/Imax cysteamine
NCCS [cysteamine]	1
NCCCC(=O)O [GABA]	0.79
NCCCBr [bromopropylamine]	0.71
CCCN [aminopropane]	0.99
NCCCCO	0.98

Now let's try a different one.
Per the record, NCCBr [bromoethylamine] has Imax/Imax cysteamine of 0.94

---

Study system: ELIC R91A (Dickeya chrysanthemi, UniProt P0C7B7, R91A)
Protocol notes: Two-electrode voltage clamp of ELIC point mutant R91A in oocytes
Condition: mutant R91A; read-out: EC50 of activation
Measurement label: EC50 (µM)
Field format: number, assumed µM, no unit text.

Per the record, NCCS has EC50 of 87

---

Study system: ELIC F19A (Dickeya chrysanthemi, UniProt P0C7B7, F19A)
Sequence (P0C7B7 whole entry F19A): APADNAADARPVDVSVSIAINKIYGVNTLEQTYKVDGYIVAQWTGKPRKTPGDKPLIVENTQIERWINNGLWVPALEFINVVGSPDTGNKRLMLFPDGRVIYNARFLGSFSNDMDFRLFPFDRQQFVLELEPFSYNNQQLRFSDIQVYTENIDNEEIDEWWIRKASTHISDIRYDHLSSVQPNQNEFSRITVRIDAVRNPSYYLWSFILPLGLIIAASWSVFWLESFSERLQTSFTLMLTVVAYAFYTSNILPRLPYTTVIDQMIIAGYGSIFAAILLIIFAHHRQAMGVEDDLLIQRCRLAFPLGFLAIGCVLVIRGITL
Protocol notes: Two-electrode voltage clamp of ELIC point mutant F19A in oocytes
Condition: read-out: EC50 of activation
Measurement label: EC50

Per the record, NCCS [cysteamine] has EC50 of > 10 mM

---

Study system: ELIC (Dickeya chrysanthemi, UniProt P0C7B7)
Construct: expressed in transfected cells; host or cells: Xenopus laevis oocytes (cRNA injection, pTLN vector)
Protocol notes: cell-based
Type: cell-based, Erwinia chrysanthemi
Condition: WT, voltage-independent activation; read-out: EC50 of activation of ELIC
Measurement label: EC50 (µM)
Field format: number, assumed µM, no unit text.

Per the record, NCCS has EC50 of 365

---

Study system: ELIC (Dickeya chrysanthemi, UniProt P0C7B7)
Construct: expressed in transfected cells; host or cells: Xenopus laevis oocytes (cRNA injection, pTLN vector)
Protocol notes: cell-based
Format: cell-based, Erwinia chrysanthemi
Condition: ligand added to the extracellular solution, 10 mM, -60 mV, compared with 2 mM cysteamine
Measurement label: activating current response of ELIC to the ligand

Here's what some known entries look like.
Compound	Val
CCN [Ethylamine]	activate the channel
NCCCS [homocysteamine]	small
CCCN [aminopropane]	activate the channel
NCCBr [bromoethylamine]	opening the channel
CC(C)N [isopropylamine]	weak
NCCCBr [bromopropylamine]	opening the channel
CCCCN [butylamine]	weak

Per the record, NCCCCCN [cadaverine] has activating current response of ELIC to the ligand of not

---

Listed molecules paired with reported EC50
Study system: ELIC (Dickeya chrysanthemi)
Construct: expressed in transfected cells; host or cells: Xenopus laevis oocytes (cRNA injection, pTLN vector)
Protocol notes: cell-based
Type: cell-based, Erwinia chrysanthemi
Condition: WT, pH 7.0, two-electrode voltage clamp, -60 mV, fit to Hill equation; read-out: EC50 of activation of ELIC
Don't forget the unit after the number, please.

Here's what some known entries look like.
NCCCCO 1700 µM
NCCCBr 1100 µM
NCCCC(=O)O 2400 µM
NCCS 365 µM
NCCBr 885 µM

Now let's try a different one.
Per the record, CCCN has EC50 of 446 µM
